Reported EC50 is given for each of the following binders.
# system-under-test: full-length beta-Catenin (Uniprot ID P35222) (Homo sapiens (Human)) (UniProt P35222)
# Sequence (P35222 2-781 limits assumed): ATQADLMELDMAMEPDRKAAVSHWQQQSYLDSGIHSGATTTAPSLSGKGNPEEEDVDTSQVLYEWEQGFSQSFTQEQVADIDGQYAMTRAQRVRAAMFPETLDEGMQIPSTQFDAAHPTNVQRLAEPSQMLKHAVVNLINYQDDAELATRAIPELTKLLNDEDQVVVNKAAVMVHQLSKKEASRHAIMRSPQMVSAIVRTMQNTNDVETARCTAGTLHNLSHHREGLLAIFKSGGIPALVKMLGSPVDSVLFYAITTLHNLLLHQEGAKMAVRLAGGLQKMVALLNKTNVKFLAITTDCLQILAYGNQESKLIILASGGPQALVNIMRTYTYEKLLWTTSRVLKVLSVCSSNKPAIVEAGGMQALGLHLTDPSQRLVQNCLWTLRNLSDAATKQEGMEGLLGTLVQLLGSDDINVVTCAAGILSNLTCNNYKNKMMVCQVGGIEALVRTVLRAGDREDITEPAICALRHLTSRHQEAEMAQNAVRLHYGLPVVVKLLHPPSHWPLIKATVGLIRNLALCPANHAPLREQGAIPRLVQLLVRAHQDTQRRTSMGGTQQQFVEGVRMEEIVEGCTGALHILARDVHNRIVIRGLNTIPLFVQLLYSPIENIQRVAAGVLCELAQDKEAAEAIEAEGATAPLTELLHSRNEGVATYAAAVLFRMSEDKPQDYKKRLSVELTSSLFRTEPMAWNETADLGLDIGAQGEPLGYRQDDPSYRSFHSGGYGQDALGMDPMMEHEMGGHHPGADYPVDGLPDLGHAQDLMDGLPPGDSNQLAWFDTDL
# experimental-details: fluorescence polarization competition; full-length beta-catenin + 5FAM-TCF4(10-53) probe; peptide titrated
Starred links: 1 amine or outer side, 2 acyl side, 3 side chain; linkers in the order of their positions; H or OH if unused. Positions of bridges follow the written chain, without caps; N, C: chain ends. Non-standard residues stand in square brackets, D forms with d. Primed or numbered codes have the meaning given here. PyrS2″ = (S)-3-amino-1-((pent-4-en-1-yloxy)carbonyl)pyrrolidine-3-carboxylic acid (stapling residue), C=CCCCOC(=O)N1CC[C@@](N[*:1])(C(=O)[*:2])C1; B5(4) = 2,2-bis(4-pentenyl)glycine = 2-amino-2-(pent-4-en-1-yl)hept-6-enoic acid (stitching residue), C=CCCCC(CCCC=C)(N[*:1])C(=O)[*:2]; B5(8) = 2,2-bis(4-pentenyl)glycine (2-amino-2-(pent-4-en-1-yl)hept-6-enoic acid, stitching residue), C=CCCCC(CCCC=C)(N[*:1])C(=O)[*:2]; TfeGA = (S)-2-amino-3-((carboxymethyl)(2,2,2-trifluoroethyl)amino)propanoic acid, O=C([C@H](CN(CC(=O)[*:3])CC(F)(F)F)N[*:1])[*:2]; B5(3) = 2,2-bis(4-pentenyl)glycine (stitching residue), C=CCCCC(CCCC=C)(N[*:1])C(=O)[*:2]; Bta = N[C@@H](Cc1csc2ccccc12)C(=O)O; αAllylPro = C=CC[C@@]1(C(=O)O)CCCN1; tBuAla = CC(C)(C)C[C@H](N)C(=O)O; 3Thi = N[C@@H](Cc1ccsc1)C(=O)O; S8 = C=CCCCCCC[C@](C)(N)C(=O)O
Give the value in nM but do not write nM after it.

Look up EC50: Ac-[αAllylPro]DL[B5(8)]DDAAFN[PyrS2″][3Thi][Bta]H-NH2 (staple 1-4, 4-11) [I-696] 5

Look up EC50: Ac-[αAllylPro]DI[B5(8)]D[TfeGA]AAFN[S8][3Thi][Bta]Q-NH2 (staple 1-4, 4-11) [I-701] 34

Look up EC50: Ac-[αAllylPro]D[tBuAla][B5(3)]D[TfeGA]AAFN[S8][3Thi][Bta]H-NH2 (staple 1-4, 4-11) [I-705] 58

Look up EC50: Ac-[αAllylPro]D[tBuAla][B5(4)]DEAAFN[PyrS2″]F[Bta]Q-NH2 (staple 1-4, 4-11; not fully specified; printed as Ac-PL3-Asp-Npg-B5-Asp-Glu-Ala-Ala-Phe-Asn-PyrS2-Phe-BztA-Gln-NH2) [I-685] 25
